Numbers sourced from the Immune Epitope Database (IEDB).

Give measured IC50 for each item. Keep answers brief.
# measurement target: HLA-B*35:01
# assay details: IEDB peptide-MHC binding, purified MHC/competitive/radioactivity; bounds were set here for any values at or beyond the usual limits of such assays
# condition set: source organism: Bordetella pertussis
Give bare numbers, in µM.

Some solved cases for reference:
- seq text: "SVAPNALAW"
  recorded measurement: 56.3
- seq text: "YTLRYLASY"
  recorded measurement: 3.52

// query IC50 value for entry EATEGDATL 69.9

* * *

# measurement target: HLA-B*53:01
# assay details: IEDB peptide-MHC binding, purified MHC/competitive/radioactivity; bounds were set here for any values at or beyond the usual limits of such assays
# condition set: source organism: Bordetella pertussis
Give measured pIC50 for each item. Keep answers brief.
Numbers only, as −log10 of the molar value.

- seq text: "YFEPGPTTD"
  pIC50: 4.16
- seq text: "EATEGDATL"
  pIC50: 4.34
- seq text: "GVGLASTLW"
  pIC50: 4.90
- seq text: "CPSSLGNGV"
  pIC50: 4.58
- seq text: "RAGLSPATW"
  pIC50: 4.57

Quick request: pIC50 for each listed item, please.
1. QADRDFVWY
2. SVAPNALAW

[4.57, 6.01]
